# assay.method.text: PSAC antagonists in infected red cells, primary screen, cell-based, P. falciparum Indochina, OD700, 2 h (AID 1155);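 note: lysis reports solute entry through the parasite surface anion channel PSAC; channel blockers reduce lysis of infected cells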
# cond: P. falciparum Indochina infected erythrocytes, osmotic lysis OD700; higher = more signal, called active from +8 up or from −8 down
Calls of active or inactive are those of the source.
assay.metric: z-score

These recorded examples may help you get a feel for the data.
COCCOC(=O)N1C(=O)[C@@]2(c3cc(C#CC4(O)CCCCCC4)ccc31)[C@H](c1ccc(O)cc1)N1[C@H](c3ccccc3)[C@H](c3ccccc3)OC(=O)[C@H]1[C@@H]2C(=O)NC[C@H](O)c1ccccc1 ... 0.487 (inactive)
CN1C(=O)C2C=CC(C(O)COCc3ccccc3)N(N(c3ccccc3)c3ccccc3)C2C1=O (stereo not drawn) ... 1.49 (inactive)
O=C1NC(=O)C2C1C=CC(C(O)CCc1ccccc1)N2Nc1ccc(Cl)cc1Cl (stereo not drawn) ... 1.31 (inactive)
CC1=C[C@@]2(CO)C(=O)[C@]3(CO3)[C@@H]1[C@H]1[C@]2(C)C=C(CO)C(=O)[C@]12CO2 ... 0.446 (inactive)
O=C1C2C=CC(C(O)c3ccc(F)cc3)N(n3cnnc3)C2C(=O)N1Cc1ccccc1 (stereo not drawn) ... -0.995 (inactive)

Items follow; give z-score for each.
1. C=C(/C(=C/C[C@H](OC(C)=O)c1ccccc1OCCO)c1cc(C(=O)OC)ccc1OC)C(C)C
2. CC(C)(C)OC(=O)CC[C@]1(C(=O)NCc2ccccc2)N=C(c2ccc(OCCCO)cc2)O[C@H]1c1ccccc1CN=[N+]=[N-]
3. COCC1=C2[C@@H](CCc3ccccc3)OB(O)C[C@@H]2[C@@H]2C(=O)C=CC(=O)[C@@H]2C1
4. COC(=O)c1c(CC[C@@H](CO)NC(=O)N[C@H](Cn2cc(C3(O)CCCCC3)nn2)C(C)C)oc(C(C)=O)c1C(=O)OC
5. CCOC(=O)C[C@H]1[C@H](OC(=O)Cc2ccc3c(c2)OCO3)[C@@H](NC(=O)Cc2ccc(OC)cc2)c2cc(OCCCO)ccc2N1C(=O)c1ccc2ccccc2n1
6. COCCOC(=O)N1C(=O)[C@@]2(c3cc(C#Cc4ccc(OC)cc4)ccc31)[C@H](c1ccc(O)cc1)N1[C@H](c3ccccc3)[C@H](c3ccccc3)OC(=O)[C@H]1[C@@H]2C(=O)N1CCCCCCC1
7. C=CCNC(=O)[C@H]1[C@@H]2C(=O)O[C@@H](c3ccccc3)[C@@H](c3ccccc3)N2[C@@H](c2ccc(O)cc2)[C@]12C(=O)Nc1ccc(C#CC3(O)CCCCCC3)cc12

Result block:
0.195 (inactive)
12.3 (active)
-0.122 (inactive)
-0.141 (inactive)
-0.486 (inactive)
0.0379 (inactive)
0.749 (inactive)

Give z-score for all molecules that follow.
1. CCOC(=O)C1=CC[C@@H](c2cccc(Cl)c2)N(S(=O)(=O)c2ccc(C)cc2)C1
2. C#CCN([C@@H](Cc1ccc(O)cc1)C(=O)OC)[C@@H](/C=C/C1CC1)[C@H](O)Cc1ccccc1
3. COC(=O)[C@@]1(Cc2ccc(F)cc2)[C@H]2c3cc(C(=O)N4CCCC4)n(CCc4ccc(O)c(O)c4)c3C[C@H]2CN1C(=O)c1ccccc1
4. CC[C@H]1C2=C3C(CC[C@H]4C(OCc5ccc(F)cc5C(F)(F)F)OC[C@](C)([C@@H]34)N(C(=O)OC(C)(C)C)C2)C(COC)C1COC (stereo partly drawn)
5. C=CCOC(=O)[C@H]1[C@@H]2C(=O)O[C@@H](c3ccccc3)[C@@H](c3ccccc3)N2[C@@H](c2ccc(OCCOC(=O)[C@H]3C[C@H]4C(=O)N[C@@H](CCCCNC(C)=O)C(=O)N4[C@H]3c3ccc(O)cc3)cc2)[C@]12C(=O)Nc1ccccc12
6. COCCOC(=O)N1C(=O)[C@@]2(c3cc(C#CC4=CCCCC4)ccc31)[C@H](c1ccc(OCCO)cc1)N1[C@H](c3ccccc3)[C@H](c3ccccc3)OC(=O)[C@H]1[C@@H]2C(=O)NC[C@H](O)c1ccccc1

Result block:
1: -0.389 (inactive); 2: 0.761 (inactive); 3: 0.5 (inactive); 4: -0.0681 (inactive); 5: 0.512 (inactive); 6: 1.31 (inactive)
